Values compiled from the supplement of paper PMC10646978.

System: RAW-Dual (murine macrophage reporter line)
Assay: NF-kB reporter (SEAP) activity fold change vs agonist alone; higher = enhanced NF-kB activity
Details: modulator concentration 10 µM; agonist: MPLA […]
Would you kindly list NF-kB reporter for each of these molecules?
# respond with the number and nothing more

Look up NF-kB reporter of CC(C)NCC(O)c1ccc(NS(C)(=O)=O)cc1.Cl (stereo not drawn) and report it. 1

Look up NF-kB reporter of CCOP(C)(=O)C(c1ccccc1)N(C)S(C)(=O)=O (stereo not drawn) and report it. 1.03

Look up NF-kB reporter of "C[C@H]1O[C@H]1P(=O)(O)O.NC(CO)(CO)CO" and report it. 0.977

Look up NF-kB reporter of "O=C(NC(=S)c1c(-c2ccccc2)cc2ccccn12)c1ccccc1" and report it. 0.883

Look up NF-kB reporter of "CCN(CC)C(=S)SSC(=S)N(CC)CC" and report it. 2.07

Look up NF-kB reporter of "NC(=O)c1c(NC(=O)CN2C(=O)C(=Cc3ccc(Cl)cc3Cl)SC2=S)sc2c1CCCC2" and report it. 0.885

Look up NF-kB reporter of "COc1c(C)c2c(c(O)c1CC=C(C)CCC(=O)O)C(=O)OC2" and report it. 0.367

Look up NF-kB reporter of "O=C1C(=CNCCN2CCOCC2)C(C(F)(F)F)=NN1c1nc2ccccc2s1" and report it. 0.863

Look up NF-kB reporter of "CN(C)c1ccc(C=NN2C(=O)c3cccc4cccc(c34)C2=O)cc1" and report it. 0.964

Look up NF-kB reporter of "Cc1cc2ncc3c(n2n1)CCN(S(=O)(=O)N(C)C)C3" and report it. 0.938

Look up NF-kB reporter of CN1CCN(c2nc3c(=O)[nH]cnc3n2C2OC(CO)C(O)C2O)CC1 (stereo not drawn) and report it. 0.904

Look up NF-kB reporter of "O=C(NCCOc1cccc2cccnc12)c1c(F)cccc1F" and report it. 0.859

Look up NF-kB reporter of CC1=C(C(=O)Nc2cccc(C)n2)C(c2ccsc2)C2=C(CC(C)(C)CC2=O)N1 (stereo not drawn) and report it. 0.996

Look up NF-kB reporter of CC1(C)C(=O)C2CC3(O)C4=CC(=O)OC(c5ccoc5)C4(C)CCC3C(C)(C2=O)C1CC(=O)O (stereo not drawn) and report it. 1.01

Look up NF-kB reporter of "CC(=O)n1cc(C=C(C)[N+](=O)[O-])c2ccccc21" and report it. 0.419

Look up NF-kB reporter of COC(=O)C1=CN(CC2CCCO2)C=C(C(=O)OC)C1c1ccc2c(c1)OCO2 (stereo not drawn) and report it. 1.02

Look up NF-kB reporter of "O=C(OCCN1CCOCC1)c1ccc(O)cc1O" and report it. 1.06

Look up NF-kB reporter of Br.COc1ccc2c3c1OC1CC(O)C=CC31CCN(C)C2 (stereo not drawn) and report it. 1.04
